test: Acute toxicity test; settings: mouse, in vivo, iv
Readout label: LD50

Query block: GET /values?readout=LD50&item= N#Cc1cccc(C2SC[C@@H](C(=O)O)N2C(=O)CCCCCCCCC(=O)N2C(c3cccc(C#N)c3)SC[C@H]2C(=O)O)c1 (stereo partly shown)
Result block: 1000 to 1500 mg/kg

----------
Overview of recorded IC50 for various compounds
biological target: aldose reductase (Rattus norvegicus); construct: Aldose reductase is purified from rat lenses; from tissue; host or cells: rat lens; assay: Aldose reductase inhibition (optical density at 340 nm, Kinoshita's method); type: biochemical; details: aldose reductase purified from rat lenses; pH 6.2; DL glyceraldehyde, NADPH; read-out: IC50(M) Molar concentration of a compound producing 50% inhibition of aldose reductase
Reply numerically in M, unit not repeated.

O=C(O)CCCCCCCC(=O)N1C(c2cccc([N+](=O)[O-])c2)SC[C@H]1C(=O)O (some centres unmarked) [compound 22]; 8.2e-10

Query compound follows.
Query block: GET /values?readout=IC50&item= N#Cc1cccc(C2SC[C@@H](C(=O)O)N2C(=O)CCCCCCCCC(=O)N2C(c3cccc(C#N)c3)SC[C@H]2C(=O)O)c1 (some centres unmarked) [compound 56]
Result block: 1.7e-09

Just for reference, patent EP0031104A1 is where these values come from.
